The following molecules were reported with IC50 values on Poly [ADP-ribose] polymerase 1 (Homo sapiens) in different studies.
Quantity measured: IC50 (nM)

O=C(c1cc(Cc2n[nH]c(=O)c3ccccc23)ccc1F)N1CCN(Cc2ccc(F)cc2)CC1 11.2

(I) O=C(O)c1ccccc1NS(=O)(=O)c1ccc2c(=O)[nH]c(=O)[nH]c2c1
(II) O=C1N[C@H](c2ccc(F)cc2)[C@@H](C(=O)N2CCC(N3CCCCC3)CC2)c2ccccc21
(III) NNS(=O)(=O)c1ccc2[nH]c(=O)c(=O)[nH]c2c1
Output the entries ranked by IC50 from maximum down to minimum. Present the labels in the sequence the task asks for.
I, II, III
(I: 167 nM, II: 55.4 nM, III: 12.9 nM)
